Give measured GI50 for each item. Keep answers brief.
tested on: H929 human cancer cell lines; test: Cellular viability / proliferation (Cell TiterGlo, 72 h); type: cell-based; settings: Homo sapiens, NCI-H929, 72 h, read-out: GI50 on cellular proliferation of H929 human cancer cell lines, H929 cells, 72 h, Cell TiterGlo, 10% FBS
Use nM as the unit, but write only the number.

// sample "Cc1cc(OCCCc2c3n(c4c(-c5c(C)nn(C)c5C)c(Cl)ccc24)[C@H](C)CN(c2ccc(C(=O)O)c4ccn(C)c24)C3=O)cc(C)c1Cl" , its GI50 was 470

// sample "COCCOCCn1c(C(=O)O)cc2cccc(N3C[C@@H](C)n4c(c(CCCOc5cc(C)c(Cl)c(C)c5)c5ccc(Cl)c(-c6c(C)nn(C)c6C)c54)C3=O)c21" , its GI50 was 280

// sample "COCCn1cc(C(=O)O)c2c(OC)ccc(N3C[C@@H](C)n4c(c(CCCOc5cc(C)c(Cl)c(C)c5)c5ccc(Cl)c(-c6c(C)nn(C)c6C)c54)C3=O)c21" , its GI50 was 420

// sample "Cc1cc(OCCCc2c3n(c4c(-c5c(C)nn(C)c5C)c(Cl)ccc24)CCCN(c2cn(CCN4CCOCC4)c4cc(C(=O)O)ccc24)C3=O)cc(C)c1Cl" , its GI50 was 1300
